Literature roundup of ROCK2 (Homo sapiens) data, read-out pIC50.
pIC50: −log10 of the molar value.

Previously resolved entries follow.
CN1CCN(c2ccc(NC(=O)c3cc4ccc(-c5nccc(Nc6ccc7[nH]ncc7c6)n5)cc4[nH]3)cc2)CC1 :: 7.00
COc1cc(F)cc(Cn2cnn(-c3ccc(-c4cn[nH]c4)cc3)c2=O)c1 :: > 8.30
COc1ccc(C(=O)N2CCC3(CC2)CCN(c2ccc(-c4cn[nH]c4)c(OC)c2)C3=O)c(OCc2ccccc2)c1 :: 7.92

Entry NC(=O)c1sc(C2CC2)nc1O[C@H]1C[C@@]2(C[C@H](NC(=O)c3nc(C(F)(F)F)n4ccccc34)C2)C1 (some centres unmarked) : pIC50 on ROCK2 (Homo sapiens) = 7.94

Entry COc1cc(N2CCN(Cc3cccc(F)c3)C2=O)ccc1-c1cn[nH]c1 : pIC50 on ROCK2 (Homo sapiens) = 7.70 to 8.68

Entry COc1ccc(CN2CCN(c3ccc(-c4cn[nH]c4)cc3)C2=O)cc1F : pIC50 on ROCK2 (Homo sapiens) = 5.70 to 6.70

Entry [H][C@]1(c2n[nH]c(=O)c3ccccc32)C[C@]2(C[C@@H](NC(=O)c3ccc(N(C)C)nc3)C2)C1 (some centres unmarked) : pIC50 on ROCK2 (Homo sapiens) = 7.00 to 7.82

====

Literature roundup of ROCK2 (Homo sapiens) data, read-out pIC50.
pIC50: −log10 of the molar value.

Previously resolved entries follow.
CN1CC(COc2cc(F)cc(C(CO)NC(=O)N3CCc4cc(-c5cn[nH]c5)c(F)cc43)c2)C1 (stereo not drawn) :: 6.30 to 7.30
COc1cccc(CN2CCN(c3ccc4c(c3)CCc3n[nH]c(C)c3-4)C2=O)c1 :: 7.00 to 8.00
O=C(NC1CC2(C1)CC(c1n[nH]c(=O)c3ccccc13)C2)c1cnn2cc(-c3cnn(CC4CC4)c3)ccc12 (stereo not drawn) :: 8.70 to 9.70
O=c1n(-c2ccc(-c3cn[nH]c3)cc2)nc(CO)n1Cc1cccc(F)c1 :: 7.30 to 8.30
O=C(NCC1CN(c2ccc(-c3n[nH]c(=O)c4ccccc34)cc2)C(=O)O1)c1ccccc1 (stereo not drawn) :: 6.30 to 7.00

Entry O=C(N[C@H]1CC2(C1)C[C@H](c1n[nH]c(=O)c3ccccc31)C2)c1cnn2cc(CN3CCOCC3)ccc12 (stereo partly drawn) : pIC50 on ROCK2 (Homo sapiens) = 7.82 to 8.29

Entry COc1cc(F)cc(Cn2c(CNCCO)nn(-c3ccc(-c4cn[nH]c4)cc3)c2=O)c1 : pIC50 on ROCK2 (Homo sapiens) = 7.30 to 8.30

Entry COc1cc(-c2cn[nH]c2)ccc1-n1c(C)nn(Cc2cccc(F)c2)c1=O : pIC50 on ROCK2 (Homo sapiens) = 5.70 to 6.60

Entry COc1nc(-n2ccn(Cc3ccc(F)c(OCC4CC4)c3)c2=O)ccc1-c1cn[nH]c1 : pIC50 on ROCK2 (Homo sapiens) = 7.70 to 8.68

====

Literature roundup of ROCK2 (Homo sapiens) data, read-out pIC50.
pIC50: −log10 of the molar value.

Previously resolved entries follow.
CNC(=O)CN1CCC2(CC1)CN(c1ccc(-c3cn[nH]c3)cc1)C(=O)N2Cc1cccc(OC)c1 :: > 8.52
Cn1c(C(=O)N2CC(F)(F)C2)cc2c1CN(c1nccc(Nc3ccc(-c4c[nH]nc4F)c(F)c3)n1)CC2 :: ≥ 7.30
CC(C)(O)c1nn(-c2ccc(-c3cn[nH]c3)cc2)c(=O)n1Cc1cccc(OC(F)F)c1 :: 6.60 to 7.30
[H][C@]1(c2n[nH]c(=O)c3ccccc32)C[C@]2(C[C@@H](NC(=O)c3ccc(-c4cnn(C)c4)c(F)c3)C2)C1 (stereo partly shown) :: 8.30 to 8.70

Entry COc1cccc(Cn2c(C)nn(-c3ccc(-c4cn[nH]c4)cc3)c2=O)c1F : pIC50 on ROCK2 (Homo sapiens) = 5.70 to 6.60

Entry CCCOC(=O)c1cccc(C(=O)Nc2cccc(CN3CCC(Nc4cccc5cnccc45)CC3)c2)c1 : pIC50 on ROCK2 (Homo sapiens) = > 7.00

Entry COc1cccc(CN2C(=O)N(c3ccc(-c4cn[nH]c4)cc3)CC23CCN(C(=O)C2CCC(F)(F)C2)CC3)c1 (stereo not shown) : pIC50 on ROCK2 (Homo sapiens) = > 8.52
